- System under test: RAR alpha (Homo sapiens)
- Sequence (P10276 whole entry): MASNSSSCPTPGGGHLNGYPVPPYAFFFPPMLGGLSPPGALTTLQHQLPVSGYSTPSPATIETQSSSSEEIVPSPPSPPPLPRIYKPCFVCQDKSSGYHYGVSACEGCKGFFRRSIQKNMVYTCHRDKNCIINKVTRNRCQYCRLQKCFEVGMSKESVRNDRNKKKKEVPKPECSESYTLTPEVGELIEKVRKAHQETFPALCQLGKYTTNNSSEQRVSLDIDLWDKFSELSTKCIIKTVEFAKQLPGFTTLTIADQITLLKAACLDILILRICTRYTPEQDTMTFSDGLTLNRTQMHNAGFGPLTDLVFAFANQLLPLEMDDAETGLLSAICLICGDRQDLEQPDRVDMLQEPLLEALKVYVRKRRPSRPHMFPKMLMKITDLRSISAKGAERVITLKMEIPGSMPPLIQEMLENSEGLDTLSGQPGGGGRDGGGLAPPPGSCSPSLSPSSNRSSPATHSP
- Assay: SelectScreen Nuclear Profiling, agonist specificity for RAR alpha
- Assay type: cell-based
- Conditions used: agonist specificity, SelectScreen
Property name: RAR alpha % max (%)
Express it in %; write the number only.

Examples from the recorded data:
CC1(C)CC=C(C#Cc2ccccc2)c2cc(/C=C/c3ccc(C(=O)O)cc3)ccc21 | −3.417
COc1ccc(-c2ccc3cc(C(=O)O)ccc3c2)cc1C12CC3CC(CC(C3)C1)C2 | 102.2
CC1(C)CC=C(c2cnc3ccccc3c2)c2cc(C(=O)Nc3ccc(C(=O)O)cc3)ccc21 | −31.01
CC1=C(/C=C/C(C)=C/C=C/C(C)=C/C(=O)O)C(C)(C)CCC1 [Tretinoin, all-trans retinoic acid] | 149.4
CC1(C)C(=O)C(C)(C)c2cc(C(=O)Nc3ccc(C(=O)O)cc3)ccc21 | 122.2

Q: Form entry - test system: RAR alpha (Homo sapiens); read-out: RAR alpha % max; molecule: CC1(C)CCSc2ccc(C#Cc3ccc(C(=O)O)cn3)cc21
A: 121.4

====

- System under test: UniProt:P10276
- Assay: SelectScreen Nuclear Profiling, agonist specificity for RAR alpha
- Type: cell-based
- Conditions used: agonist specificity, SelectScreen
Property name: pEC50
pEC50 is defined as minus the log10 of a concentration measured in mol/L.

Examples from the recorded data:
COc1ccc(-c2ccc3cc(C(=O)O)ccc3c2)cc1C12CC3CC(CC(C3)C1)C2 [Adapalene] | 8.30
CC1(C)CC=C(c2cnc3ccccc3c2)c2cc(C(=O)Nc3ccc(C(=O)O)cc3)ccc21 [BMS195614] | 5.87
CC1(C)CC=C(C#Cc2ccccc2)c2cc(/C=C/c3ccc(C(=O)O)cc3)ccc21 [BMS493] | 7.56
CC1(C)C(=O)C(C)(C)c2cc(C(=O)Nc3ccc(C(=O)O)cc3)ccc21 [BMS753] | 8.84

Shift focus to the following entry.
Q: Look at this molecule and give its reported pEC50. CC1(C)CCSc2ccc(C#Cc3ccc(C(=O)O)cn3)cc21 [Tazarotenic, Tazarotenic acid]
A: 9.45

====

- System under test: RAR beta (Homo sapiens, UniProt P10826)
- Sequence (P10826 whole entry): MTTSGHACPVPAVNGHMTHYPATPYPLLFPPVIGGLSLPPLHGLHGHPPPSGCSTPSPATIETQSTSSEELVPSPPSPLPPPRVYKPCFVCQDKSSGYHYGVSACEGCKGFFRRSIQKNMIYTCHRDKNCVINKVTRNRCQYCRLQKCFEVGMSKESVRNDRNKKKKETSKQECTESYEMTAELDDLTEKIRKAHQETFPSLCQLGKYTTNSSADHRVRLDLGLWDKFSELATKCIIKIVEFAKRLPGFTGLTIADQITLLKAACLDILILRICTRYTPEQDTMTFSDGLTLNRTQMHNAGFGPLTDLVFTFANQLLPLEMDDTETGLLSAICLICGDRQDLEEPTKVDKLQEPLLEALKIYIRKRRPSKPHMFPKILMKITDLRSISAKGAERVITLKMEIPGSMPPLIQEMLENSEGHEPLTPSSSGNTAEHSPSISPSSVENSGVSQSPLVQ
- Assay: SelectScreen Nuclear Profiling, agonist specificity for RAR beta
Property name: pEC50
pEC50 is defined as minus the log10 of a concentration measured in mol/L.

Examples from the recorded data:
CC1(C)C(=O)C(C)(C)c2cc(C(=O)Nc3ccc(C(=O)O)cc3)ccc21 | 6.15
COc1ccc(-c2ccc3cc(C(=O)O)ccc3c2)cc1C12CC3CC(CC(C3)C1)C2 | 8.01

Q: Form entry - test system: RAR beta (Homo sapiens, UniProt P10826); read-out: pEC50; compound: CC1(C)CCSc2ccc(C#Cc3ccc(C(=O)O)cn3)cc21
A: 8.29
